- System: SFV-Rluc
- measurement_parameters: primary screening of chemical libraries; compounds tested at 50 µM
measure_name: SFV replication % left (%)
Just the number in %, nothing appended.

molecule | measure_name | unit_abbreviation | reported_measurement
C[C@@H]1O[C@@H](OC[C@H]2O[C@@H](Oc3c(-c4ccc(O)c(O)c4)oc4cc(O)cc(O)c4c3=O)[C@H](O)[C@@H](O)[C@@H]2O)[C@H](O)[C@H](O)[C@H]1O | SFV replication % left | % | 44.1
CN1CCCCC1CCN1c2ccccc2Sc2ccc([S+](C)[O-])cc21.O=S(=O)(O)c1ccccc1 (stereo not drawn) | SFV replication % left | % | 93.8
CCN(CC)c1ccc2cc(-c3nc4ccccc4n3C)c(=O)oc2c1 | SFV replication % left | % | 12.3
O=C(O)c1c(O)cccc1O | SFV replication % left | % | 118.7
O=c1c(O)c(-c2ccc(O)c(O)c2)oc2cc(O)c(O)c(O)c12 | SFV replication % left | % | 90.2

Query: Using the record for CC(CCc1ccccc1)NCC(O)c1ccc(O)c(C(N)=O)c1.Cl (stereo not drawn) , report its SFV replication % left.
Response: 72.5

Query: Using the record for O=c1c(O)c(-c2cc(O)c(O)c(O)c2)oc2cc(O)cc(O)c12 , report its SFV replication % left.
Response: 2.0

Query: Using the record for Oc1cc(O)c2c(c1)OC(c1ccc(O)c(O)c1)C(O)C2O (stereo not drawn) , report its SFV replication % left.
Response: 136.3

* * *

Below are compounds with their SFV replication % left (surviving fraction, remaining percentage of SFV replication) as measured on SFV-Rluc.
Just the number in %, nothing appended.

Query: Which measured SFV replication % left (surviving fraction, remaining percentage of SFV replication) belongs to CNC(C)Cc1ccc(O)cc1.CNC(C)Cc1ccc(O)cc1.O=S(=O)(O)O (centres unmarked) [Pholedrine sulfate] , tested on SFV-Rluc?
Response: 92.8

* * *

Below are compounds with their SFV replication % left (surviving fraction, remaining percentage of SFV replication) as measured on SFV-Rluc.
Just the number in %, nothing appended.

Reference set, count: 8
compound | reported_measurement
CN1C(=O)CN=C(c2ccccc2)c2cc(Cl)ccc21 [Diazepam] | 73.6
CC(C)(C)NCC(O)c1cc(O)cc(O)c1.CC(C)(C)NCC(O)c1cc(O)cc(O)c1.O=S(=O)(O)O (stereo not drawn) [Terbutaline hemisulfate salt] | 97.5
CC(=O)Oc1c(C)cc(OCC(O)CNC(C)C)c(C)c1C (stereo not drawn) [Metipranolol] | 46.2
CNC1=Nc2ccc(Cl)cc2C(c2ccccc2)=[N+]([O-])C1 [Chlordiazepoxide] | 54.3
COc1cc2ccc(=O)oc2cc1O [Scopoletin] | 81.9
NS(=O)(=O)c1cc2c(cc1Cl)NCNS2(=O)=O [Hydrochlorothiazide] | 121.2
COc1ccc2oc(=O)cc(C)c2c1 [6-Methoxy-4-methylcoumarin] | 66.6
CCOc1ccc(NC(N)=O)cc1 [Dulcin [p-phenetylurea]] | 103.3

// next entry
Query: Using the record for CCCOC(=O)c1cc(O)c(O)c(O)c1 [n-Propyl gallate] , report its SFV replication % left (surviving fraction, remaining percentage of SFV replication).
Response: 33.6

* * *

SFV replication % left (surviving fraction, remaining percentage of SFV replication) values by entry
- Tested on: SFV-Rluc
Structures can show the parent of a compound that is named as a salt.
Just the number in %, nothing appended.

Query: Using the record for C[C@H](N)[C@H](O)c1cccc(O)c1.O=C(O)C(O)C(O)C(=O)O [Metaraminol bitartrate salt] , report its SFV replication % left (surviving fraction, remaining percentage of SFV replication).
Response: 96.5

Query: Using the record for OCCN1CCN(CCCN2c3ccccc3C=Cc3ccccc32)CC1 , report its SFV replication % left (surviving fraction, remaining percentage of SFV replication).
Response: 27.5

Query: Using the record for Cc1nnc(NS(=O)(=O)c2ccc(N)cc2)s1 [Sulfamethylthiadiazole] , report its SFV replication % left (surviving fraction, remaining percentage of SFV replication).
Response: 89.6

Query: Using the record for O=C1NS(=O)(=O)c2ccccc21.[Na] , report its SFV replication % left (surviving fraction, remaining percentage of SFV replication).
Response: 105.0

Query: Using the record for COCCc1ccc(OCC(O)CNC(C)C)cc1 (stereo not shown) [Metoprolol tartrate] , report its SFV replication % left (surviving fraction, remaining percentage of SFV replication).
Response: 65.7

Query: Using the record for COc1ccc(O)c(C(C)(C)C)c1 [Butylated hydroxyanisole] , report its SFV replication % left (surviving fraction, remaining percentage of SFV replication).
Response: 66.8

Query: Using the record for Cc1noc(NS(=O)(=O)c2ccc(N)cc2)c1C , report its SFV replication % left (surviving fraction, remaining percentage of SFV replication).
Response: 91.4

Query: Using the record for CCc1nnc(NS(=O)(=O)c2ccc(N)cc2)s1 , report its SFV replication % left (surviving fraction, remaining percentage of SFV replication).
Response: 106.4

Query: Using the record for CCN(CC)CCOC(=O)c1ccc(N)cc1 [Procaine hydrochloride] , report its SFV replication % left (surviving fraction, remaining percentage of SFV replication).
Response: 105.4

Query: Using the record for O=c1cc(-c2ccc(O)c(O)c2)oc2cc(O[C@@H]3O[C@H](CO)[C@@H](O)[C@H](O)[C@H]3O)cc(O)c12 [Luteolin-7-glucoside] , report its SFV replication % left (surviving fraction, remaining percentage of SFV replication).
Response: 17.8

Query: Using the record for CCC1(c2ccccc2)C(=O)N=C([O-])NC1=O.[Na+] (stereo not shown) , report its SFV replication % left (surviving fraction, remaining percentage of SFV replication).
Response: 88.1

Query: Using the record for Nc1nc(=O)c2nc(CNc3ccc(C(=O)N[C@@H](CCC(=O)O)C(=O)O)cc3)cnc2[nH]1 , report its SFV replication % left (surviving fraction, remaining percentage of SFV replication).
Response: 100.0

Query: Using the record for COc1cc(O)c2c(=O)c(OC)c(-c3ccc(OC)c(OC)c3)oc2c1 , report its SFV replication % left (surviving fraction, remaining percentage of SFV replication).
Response: 65.0
